# Test system: OVCAR-8 ovarian
# Assay Comment: NCI tumour cell line growth inhibition, 48 h
TGI values by entry
Quantity Kind: TGI (µM)

compound="Fc1cccc(C2ON=C(c3ccccc3)N2C23CC4CC(CC(C4)C2)C3)c1 (centres undefined)" tgt="OVCAR-8 ovarian" operator=> assay_result=10
compound=C=C(c1ccc(C(=O)NCCCn2ccnc2)cc1)c1cc2c(cc1C)C(C)(C)CCC2(C)C tgt="OVCAR-8 ovarian" operator== assay_result=10.7
compound=O=C(N[C@H]1CC2(C=C(I)C(=O)C(I)=C2)OC1=O)OCc1ccccc1 tgt="OVCAR-8 ovarian" operator== assay_result=31.3
compound=Nc1ccc2c3c1cccc3c(=O)n1c3ccc(Cc4ccc5c(c4)nc4c6ccc(N)c7cccc(c(=O)n54)c76)cc3nc21 tgt="OVCAR-8 ovarian" operator=> assay_result=100
compound="Cc1ccc(/C=C2\\CCCC(C(NO)c3ccc(C)cc3)C2=NO)cc1 (centres undefined)" tgt="OVCAR-8 ovarian" operator=> assay_result=100
compound=COc1cc(-c2ccc[nH]2)[nH]c1/C=C1\N=C(C)C(C(=O)NC(C)C)=C1C tgt="OVCAR-8 ovarian" operator== assay_result=13.5
compound="NCC1OC(OC2C(N)CC(N)C(O)C2OC2OC(CO)C(O)C2O)C(N)C(O)C1O (centres undefined)" tgt="OVCAR-8 ovarian" operator=> assay_result=100
compound=Cc1cc(C)nc(NS(=O)(=O)c2ccc(NC(=O)c3ccc4nc5ccccc5c(Nc5ccc(S(=O)(=O)N=C(N)N)cc5)c4c3)cc2)n1 tgt="OVCAR-8 ovarian" operator=> assay_result=100
compound=COc1cc2c(cc1OCCN1CCN(CCOc3cc4c(cc3OC)C(=O)N3CCC[C@H]3C=N4)CC1)N=C[C@@H]1CCCN1C2=O tgt="OVCAR-8 ovarian" operator=> assay_result=100
compound="CC(C)C(Nc1c2ccccc2[n+](C)c2ccccc12)C(=O)O (centres undefined)" tgt="OVCAR-8 ovarian" operator=> assay_result=100
compound="COc1cc2c(cc1OC)C(C1CC1)ON(C)CC2 (centres undefined)" tgt="OVCAR-8 ovarian" operator=> assay_result=100
compound=COc1cc(C(=O)Nc2ccc(-c3nc4ccccc4[nH]3)cc2)cc(OC)c1OC tgt="OVCAR-8 ovarian" operator== assay_result=28.5
compound="CC1OC23CCCCC2C(C#N)(C#N)C1(C#N)C(=N)O3 (centres undefined)" tgt="OVCAR-8 ovarian" operator== assay_result=54.1
compound=O=[N+]([O-])C(/C=C(\Cl)[N+](=O)[O-])=C(Nc1ccccc1)Nc1ccccc1 tgt="OVCAR-8 ovarian" operator== assay_result=21.6
compound=CNc1ccc(CSc2ccc(C)cc2)cc1 tgt="OVCAR-8 ovarian" operator=> assay_result=100
compound=CSC1=C(C)C(/C=N/Nc2ccc([N+](=O)[O-])cc2)=C(C)N(c2ccccc2)S1(=O)=O tgt="OVCAR-8 ovarian" operator=> assay_result=100
compound=CC(C)(C)OC(=O)CC(S(=O)(=O)c1ccccc1)S(=O)(=O)c1ccccc1 tgt="OVCAR-8 ovarian" operator== assay_result=23.3
compound=N=C(N)c1ccc(N=Nc2c(O)c(C(=O)Nc3ccccc3)cc3ccccc23)cc1 tgt="OVCAR-8 ovarian" operator== assay_result=34.5
compound=COc1cc(C(=O)/C=C/c2c(C)n([O-])c3ccc(Cl)cc3[n+]2=O)cc(OC)c1OC tgt="OVCAR-8 ovarian" operator=> assay_result=100

====

# System: SK-MEL-28 melanoma
# Assay Comment: NCI tumour cell line growth inhibition, 48 h
TGI values by entry
Quantity Kind: TGI (µM)

compound="CC1OC23CCCCC2C(C#N)(C#N)C1(C#N)C(=N)O3 (stereo not given)" operator== assay_result=56
compound=c1ccc2c(c1)n1nnnc1c1nnnn21 operator=> assay_result=100
compound=Cc1c(C(=O)/C=C/c2ccc3c(c2)OCO3)[n+](=O)c2ccccc2n1[O-] operator=> assay_result=100
compound="COc1ccc(C=C2C(C)=NN(c3cccc(Cl)c3)C23C(Cl)C(=O)N3c2nc3ccccc3s2)cc1 (stereo not given)" operator== assay_result=23.9
compound="CCCCCCC1CCCCN1C(c1ccccc1)C(O)c1ccccc1 (stereo not given)" operator== assay_result=22.1
compound=O=c1c2ccccc2n2nnc3ccc(NCCNCCO)c1c32 operator== assay_result=10.9
compound=Cc1cc(C)c(C2=NO[C@@H]3[C@H]2C(=O)C=C2N(Cc4ccccc4)CCO[C@@]23O)c(C)c1 operator=> assay_result=100
compound=O=[N+]([O-])C(/C=C(\Cl)[N+](=O)[O-])=C(Nc1ccccc1)Nc1ccccc1 operator== assay_result=24.6
compound=COc1ccc(-c2nc3sccn3c2/C=C/C(=O)c2cc(OC)c(OC)c(OC)c2)cc1 operator== assay_result=51.8
compound="Fc1cccc(C2ON=C(c3ccccc3)N2C23CC4CC(CC(C4)C2)C3)c1 (stereo not given)" operator=> assay_result=10

====

log10 TGI values by entry
# Test system: BT-549 breast
# Assay Comment: NCI tumour cell line growth inhibition, 48 h
Quantity Kind: log10 TGI (log10 of the value in µM)

compound=CCCCCCCCCCCCCCCC[N+](C)(C)CCl assay_result=0.90
compound="CC(=O)O[C@H]1C(=O)[C@@]2(C)C([C@H](OC(=O)c3ccccc3)[C@]3(O)C[C@H](OC(=O)[C@H](O)[C@@H](NC(=O)c4ccc(Cl)cc4)c4ccccc4)C(C)=C1C3(C)C)C1(OC(C)=O)CO[C@@H]1C[C@@H]2O (stereo not given in full)" assay_result=-0.67
compound="C=C1CCC2C(C)(CO)C(O)CCC2(C)C1C/C=C1\\C(=O)OCC1O (stereo not given)" assay_result=1.31
compound=C[C@]12CC[C@H]3[C@@H](CCC4=C/C(=N/OCCN5CCCCC5)CC[C@@]43C)[C@@H]1CC[C@@H]2O assay_result=1.56
compound="Cc1nc2sc(C(=O)Nc3cccc(Cl)c3)c(N)c2cc1C(O)c1ccccc1 (stereo not given)" assay_result=1.55
compound=CC(C)(C)OC(=O)CC(S(=O)(=O)c1ccccc1)S(=O)(=O)c1ccccc1 assay_result=1.40
compound=O=C(Cc1csc2nc(-c3ccc(Br)cc3)cn12)N/N=C/c1ccccc1O assay_result=1.35
compound="CC(C)NC(=O)OCCN=C1c2ccccc2C(Br)C(Br)c2ccccc21 (stereo not given)" assay_result=1.47
compound="COc1cc2c(cc1OC)C(Sc1ccc(Cl)cc1)c1c(nc(N)c(C#N)c1N)O2 (stereo not given)" assay_result=0.45

====

# Tested on: U251 CNS
# Assay Comment: NCI tumour cell line growth inhibition, 48 h
Quantity Kind: TGI

compound=COc1cc(/C=C/C(=O)/C=C/c2ccc(-n3ccnc3)cc2)ccc1O tgt="U251 CNS" assay_result="5.24 µM"
compound=Cc1ccc(-n2cc(/C(N)=N/O)c3ccccc3c2=O)cc1 tgt="U251 CNS" assay_result="> 100 µM"
compound="COC1CCC(OS(C)(=O)=O)C(C)O1 (stereo unspecified)" tgt="U251 CNS" assay_result="> 10 µM"
compound=C/C(=C\C(=O)O)C(=O)N(C)c1ccccc1I tgt="U251 CNS" assay_result="> 100 µM"
compound="CC1OC23CCCCC2C(C#N)(C#N)C1(C#N)C(=N)O3 (stereo unspecified)" tgt="U251 CNS" assay_result="71.5 µM"
compound="C=C(C)C1CCC2(C)C1CCC1(C)C2CCC2C3(C)C4OC(OC4=O)C(C)(C)C3CCC21C (stereo unspecified)" tgt="U251 CNS" assay_result="> 100 µM"
compound=O=c1[nH]c(NCCCCCO)nc2nc[nH]c12 tgt="U251 CNS" assay_result="> 100 µM"
compound=CC(C)(C)c1cc(C(C)(C)C)c2sc(=O)oc2c1O tgt="U251 CNS" assay_result="27.8 µM"
compound=Cc1c(-c2ccccc2)oc(=O)c2ccccc12 tgt="U251 CNS" assay_result="42.2 µM"
compound="CCOC(=O)CC1(N)CC2c3ccccc3OC(=O)C2C(=O)N1 (stereo unspecified)" tgt="U251 CNS" assay_result="> 100 µM"
compound=COc1ccc(/C=C2\N=C3N(Cc4ccccc4)C=C(N)N3C2=O)cc1 tgt="U251 CNS" assay_result="92.3 µM"
compound=COc1cc(-c2cc(OC)c(OC)c3ccc(Br)cc23)c2cc(Br)ccc2c1OC tgt="U251 CNS" assay_result="37.7 µM"
compound=O=C(O)c1cc2ccc(Cl)cc2c(O)c1C1=CCCCC1 tgt="U251 CNS" assay_result="> 100 µM"
compound=COc1ccc(N=C2C(=O)Nc3ccc(Br)cc32)cc1 tgt="U251 CNS" assay_result="96.8 µM"
compound="COc1cc(C2C3=C(NC(=O)C2C#N)c2ccc4ccccc4c2OCC3)cc(OC)c1OC (stereo unspecified)" tgt="U251 CNS" assay_result="30.4 µM"
compound=CCn1c(-c2cc3ccccc3cc2OC(C)=O)n[nH]c1=S tgt="U251 CNS" assay_result="51.4 µM"
compound="CCOC(=O)CCC(C(=O)OCC)n1nnc2cc(Nc3c(C)[n+]([O-])c4cc(Cl)ccc4[n+]3[O-])ccc21 (stereo unspecified)" tgt="U251 CNS" assay_result="> 100 µM"
compound="CN(Cc1cnc2nc(N)nc(N)c2n1)c1c(Cl)cc(C(=O)NC(CCC(=O)O)C(=O)O)cc1Br (stereo unspecified)" tgt="U251 CNS" assay_result="> 100 µM"
compound="CC(CSc1nc2c(c(=N)n1-c1ccccc1)c(=S)n(-c1ccccc1)c(=S)n2-c1ccccc1)CN(C)C (stereo unspecified)" tgt="U251 CNS" assay_result="3.28 µM"
compound=CCOc1ccc(N=Nc2c(-c3ccccc3)nn(C(=O)CC(=O)Nc3ccccc3Cl)c2-c2ccccc2)cc1 tgt="U251 CNS" assay_result="> 100 µM"
compound="CCOC(=O)/C=C(/OCC)[C@@H]1C(C(=O)c2ccc(Cl)cc2)[C@@H]1/C(=C\\C(=O)OCC)OCC (stereo partly specified)" tgt="U251 CNS" assay_result="> 100 µM"

Reference source for all entries: PubChem BioAssay (NCI)
